Target: T1, Goat anti-Human Kappa
T1 construct: Positive control of the ELISA; also called biotinylated goat anti-human kappa light chain
Assay: ELISA, positive control; also: test concentration or dose not given here
READOUT_LABEL: optical density

Known results for binders:
# BINDER, RESULT
data = [
    ("369_E02 (antibody, V domains shown) VH: EVQLLESGGGLVQPGGSLRLSCAASGFTFDSYGMNWVRQAPGKGLEWVSNINYNGGYTGYADSVKGRFTISRDNSKNTLYLQMNSLRAEDTAVYYCARSANWHDTALDYWGQGTLVTVSS VL: DIQMTQSPSSLSASVGDRVTITCRASQSIVSYVNWYQQKPGKAPKLLIYATTSRHSGVPSRFSGSGSGTDFTLTISSLQPEDFATYYCQQSYDNPLTFGGGTKVEIK", "3.43 OD"),
    ("371_C03 (antibody, V domains shown) VH: EVQLLESGGGLVQPGGSLRLSCAASGFTFSSYSMNWVRQAPGKGLEWVSNINYNGGYKGYADSVKGRFTISRDNSKNTLYLQMNSLRAEDTAVYYCARSANWHDTALDYWGQGTLVTVSS VL: DIQMTQSPSSLSASVGDRVTITCRASQSILSYLNWYQQKPGKAPKLVIYATTSRASGVPSRFSGSGSGTDFTLTISSLQPEDFATYYCQQSYSTPLTFGGGTKVEIK", "3.6 OD"),
]

Next binder, optical density to be filled in.
Query string: Which optical density value belongs to 368_A01 (antibody, V domains shown) VH: EVQLLESGGGLVQPGGSLRLSCAASGFTFSSYGMNWVRQAPGKGLEWVSNINYNGGYTSYADSVKGRFTISRDNSKNTLYLQMNSLRAEDTAVYYCARSANWHDTALDYWGQGTLVTVSS VL: DIQMTQSPSSLSASVGDRVTITCRASQSIISYLNWYQQKPGKAPKLLIYAATSRHSGVPSRFSGSGSGTDFTLTISSLQPEDFATYYCQQSYDNPLTFGGGTKVEIK ?
Result string: 3.68 OD
